tested on: Bacillus subtilis (ATCC43639); experiment: Microtitre plate assay, IC90 for bacterial growth; format: cell-based; details: 90% inhibitory concentration for bacterial growth
PROPERTY_MEASURED: IC90 BSU 43639 (µg/mL)

Recorded IC90 BSU 43639, per entry:
COc1ccc2nc(OC)c(C(c3ccccc3)C3(c4cccc5ccccc45)CCN(C)CO3)cc2c1 (single isomer, unassigned) [Compound 4]; 50.5
COc1nc2ccc(-c3ccccc3)cc2cc1C(c1ccccc1)C1(c2cccc3ccccc23)CCN(C)CO1 (single isomer, unassigned); 55.1
COc1ccc2nc(OC)c(C(c3ccccc3)C3(c4cccc5ccccc45)CCN(C)CO3)cc2c1 (single isomer, unassigned) [Compound 10]; 2.5

1: COc1nc2ccc(C)cc2cc1C(c1ccccc1)C1(c2cccc3ccccc23)CCN(C)CO1 (single isomer, unassigned)
2: COc1nc2ccc(Cl)cc2cc1C(c1ccccc1)C1(c2cccc3ccccc23)CC[N+](C)(C)CO1.[I-] (single isomer, unassigned) [Compound 15]
3: COc1nc2ccc(Cl)cc2cc1C(c1ccccc1)C1(c2cccc3ccccc23)CC[N+](C)(C)CO1.[I-] (single isomer, unassigned) [Compound 16]
Order the records, beginning with the lowest IC90 BSU 43639 and ending with the highest. As an answer, provide the labels arranged in the order called for.
2, 3, 1
(2: 2.1 µg/mL, 3: 10.5 µg/mL, 1: 48.9 µg/mL)

---

tested on: methicilline resistant Staphylococcus aureus (MRSA) (a clinical isolate from the University of Antwerp); test: Microtitre plate assay, IC90 for bacterial growth; assay type: cell-based; conditions: Staphylococcus aureus, MRSA, 90% inhibitory concentration for bacterial growth, read-out: IC90 STA RMETHIC
PROPERTY_MEASURED: IC90 (µg/mL)
Field: numeric (µg/mL). Do not append units.

CC[N+]1(C)CCC(c2cccc3ccccc23)(C(c2ccccc2)c2cc3cc(Br)ccc3nc2OC)OC1.[I-] (single isomer, unassigned) [Compound 19]; 2.3

Consider the compound COc1nc2ccc(Br)cc2cc1C(c1ccccc1)C1(c2cccc3ccccc23)CC[N+](C)(C)CO1.[I-] (single isomer, unassigned) [Compound 18] and give its recorded IC90.
2.3

Consider the compound COc1nc2ccc(Br)cc2cc1C(c1ccccc1)C1(C2=CC=CCC2)CCN(C)CO1 (single isomer, unassigned) [Compound 8] and give its recorded IC90.
12.7

---

PROPERTY_MEASURED: melting point (°C)

Recorded melting point, per entry:
COc1nc2ccc(Cl)cc2cc1C(c1ccccc1)C1(c2cccc3ccccc23)CCN(C)CO1 (single isomer, unassigned); 189
COc1nc2ccc(Br)cc2cc1C(c1ccccc1)C1(c2cccc3ccccc23)CC[N+](C)(C)CO1.[I-] (single isomer, unassigned) [Compound 18]; 228
COc1nc2ccc(Cl)cc2cc1C(c1ccccc1)C1(c2cccc3ccccc23)CC[N+](C)(C)CO1.[I-] (single isomer, unassigned) [Compound 16]; 195
COc1nc2ccc(Br)cc2cc1C(c1ccccc1)C1(c2cccc3ccccc23)CCN(C)CO1 (single isomer, unassigned) [Compound 7]; 108
COc1nc2ccc(Cl)cc2cc1C(c1ccccc1)C1(c2cccc3ccccc23)CC[N+](C)(C)CO1.[I-] (single isomer, unassigned) [Compound 15]; 211

1: COc1nc2ccc(Br)cc2cc1C(c1ccccc1)C1(c2cccc3ccccc23)CCN(C)CO1 (single isomer, unassigned) [Compound 1]
2: COc1nc2ccc(Br)cc2cc1C(c1ccccc1)C1(C2=CC=CCC2)CCN(C)CO1 (single isomer, unassigned)
Kindly compare 1 with 2 and tell me which has the lower melting point figure. Kindly state the label of the option you pick.
1
(1: 112 °C, 2: 168 °C)

---

test system: methicilline resistant Staphylococcus aureus (MRSA) (a clinical isolate from the University of Antwerp); test: Microtitre plate assay, IC90 for bacterial growth; format: cell-based; conditions: Staphylococcus aureus, MRSA, 90% inhibitory concentration for bacterial growth, read-out: IC90 STA RMETHIC
# reported IC90; entries follow
Field: numeric (µg/mL). Do not append units.

Recorded IC90, per entry:
COc1nc2ccc(Cl)cc2cc1C(c1ccccc1)C1(c2cccc3ccccc23)CC[N+](C)(C)CO1.[I-] (single isomer, unassigned); 2.1
COc1nc2ccc(Cl)cc2cc1C(c1ccccc1)C1(c2cccc3ccccc23)CCN(C)CO1 (single isomer, unassigned); 12.8

Next up:
Consider the compound COc1nc2ccc(-c3ccccc3)cc2cc1C(c1ccccc1)C1(c2cccc3ccccc23)CCN(C)CO1 (single isomer, unassigned) and give its recorded IC90.
55.1

---

PROPERTY_MEASURED: melting point (°C)

CC[N+]1(C)CCC(c2cccc3ccccc23)(C(c2ccccc2)c2cc3cc(Br)ccc3nc2OC)OC1.[I-] (single isomer, unassigned) [Compound 19]; 236
COc1nc2ccc(Br)cc2cc1C(c1ccccc1)C1(c2cccc3ccccc23)CC[N+](C)(C)CO1.[I-] (single isomer, unassigned) [Compound 17]; 245
CC[N+]1(C)CCC(c2cccc3ccccc23)(C(c2ccccc2)c2cc3cc(Br)ccc3nc2OC)OC1.[I-] (single isomer, unassigned) [Compound 20]; 215
COc1nc2ccc(Br)cc2cc1C(c1ccc(Cl)cc1)C1(c2cccc3ccccc23)CCN(C)CO1 (single isomer, unassigned); 201
